- test target: T1, Bbc1, P47068
- T1 sequence (P47068 1-78, looked up): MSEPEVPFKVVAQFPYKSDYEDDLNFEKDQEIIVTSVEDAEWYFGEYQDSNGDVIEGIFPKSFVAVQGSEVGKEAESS
- run description: SPOT array
- run conditions: median of control spots 796
quantity: SPOT intensity

Previously resolved entries follow.
RKRRTHLRLPLIRSN :: 101
MSPLGAPPPPPHKDH :: 0
PIVPSSPAPPLPLSG :: 0

a: LYEAMPPTLPHRDWK
b: RKQRSIPLSPIVPES
Exercise: Looking only at measured SPOT intensity, which entry is lower, a or b ? Please identify the chosen entry by its label.
Solution: a

A: RPVPPPPPMRTTTEG
B: NILKRRPLKLEAPSK
Exercise: Looking only at measured SPOT intensity, which entry is lower, A or B ? Please identify the chosen entry by its label.
Solution: A
(A: 0, B: 272)
